Each recorded value in this set is attributed to the supplement of paper PMC4237247.

Tested on: HeLa
Assay: percent cells in G2/M phase; higher = more G2/M arrest
Settings: 10 µM; 20 h; hit class: G2/M-phase inhibitor
quantityName: percent cells in G2/M phase (%)
# number only, unit % dropped from output

q: Provide one value: measured percent cells in G2/M phase of O=C(O)c1ccccc1SC1CC(=O)N(c2ccc(Br)cc2)C1=O (stereo not drawn)
a: 75.3

q: Identify the reported percent cells in G2/M phase for the following entry. COc1ccccc1NC1=CC(=O)CC(c2ccccc2)C1 (stereo not drawn)
a: 70.1

q: # return recorded percent cells in G2/M phase for entry O=c1[nH]c(/C=C/c2ccccc2)nc2ccccc12
a: 69.3
